- system tested: human GLP1-R (Homo sapiens)
- Sequence (P43220 24-463): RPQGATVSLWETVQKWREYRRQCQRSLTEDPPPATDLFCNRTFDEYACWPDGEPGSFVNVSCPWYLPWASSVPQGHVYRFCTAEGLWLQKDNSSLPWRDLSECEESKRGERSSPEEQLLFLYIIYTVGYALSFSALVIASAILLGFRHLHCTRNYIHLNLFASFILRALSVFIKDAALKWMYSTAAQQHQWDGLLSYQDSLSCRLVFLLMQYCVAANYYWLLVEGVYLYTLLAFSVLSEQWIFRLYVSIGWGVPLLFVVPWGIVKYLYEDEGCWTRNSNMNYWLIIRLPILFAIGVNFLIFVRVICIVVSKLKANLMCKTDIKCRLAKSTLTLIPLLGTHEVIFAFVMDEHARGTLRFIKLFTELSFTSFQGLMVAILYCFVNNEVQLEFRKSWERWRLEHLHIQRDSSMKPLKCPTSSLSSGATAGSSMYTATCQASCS
- test: GLP1-R internalization assay in HEK293 cells
- Assay type: cell-based
- measurement setup: normalized to maximum concentration of GLP-1 (100%)
Starred links: 1 amine or outer side, 2 acyl side, 3 side chain; linkers in the order of their positions; H or OH if unused. Non-standard residues stand in square brackets, D forms with d. Groups on a side chain read outwards from the residue. No end group written: not given here. *: point of attachment. C20 diacid = O=C(O)CCCCCCCCCCCCCCCCCCC(=O)*; C18 diacid = O=C(O)CCCCCCCCCCCCCCCCC(=O)*; γGlu = O=C(O)[C@H](CCC(=O)[*:2])N[*:1]; αMeL = CC(C)C[C@](C)(N)C(=O)O; Orn = NCCC[C@H](N)C(=O)O; AEEA = NCCOCCOCC(=O)O; Aib = CC(C)(N)C(=O)O

substance: H-Y[Aib]QGTFTSDFSK[αMeL]LDKK([AEEA-γGlu-C20 diacid])AQ[Aib]AFIEYLLE[Aib]GPSSGAPPPGGS-NH2 [Example 43]
reading unit: %
Internalization % TOP: 68.3
--
substance: H-Y[Aib]QGTFTSDFS[Orn][αMeL]LDKK([AEEA-γGlu-C18 diacid])AQ[Aib]AFIEWLLEGGSSSGAPPPSGS-NH2 [Example 173]
reading unit: %
Internalization % TOP: 38.6
--
substance: Y[Aib]QGTFTSDFS[Orn][αMeL]LDKK([AEEA-γGlu-C18 diacid])AQ[Aib]AFIEYLLEGGPSSGAPPPSEG-NH2 [Example 50]
reading unit: %
Internalization % TOP: 31.1
--
substance: H-Y[Aib]QGTFTSDFS[Orn][αMeL]LDKK([AEEA-γGlu-C18 diacid])AQ[Aib]AFIEYLLE[Aib]GPSSGAPPPSGS-NH2 [Example 74]
reading unit: %
Internalization % TOP: 53.3
--
substance: H-Y[Aib]QGTFTSDFS[Orn][αMeL]LDKK([AEEA-AEEA-γGlu-C18 diacid])AQ[Aib]AFIEYLLE[Aib]GPSSGAPPPSGT-NH2 [Example 165]
reading unit: %
Internalization % TOP: 44.5
